# assay-summary: ATG_Oct_MLP_CIS: Attagene CIS-FACTORIAL HepG2 Assay for human Octamer-Binding Transcription Factor (Oct) (AID 2282993)
# test-context: HepG2 Attagene cis-factorial Oct reporter, mRNA; actives raise or lower the signal
# Procedure: ATG_CIS is a cell-based, multiplexed-readout assay that uses HepG2, a human liver cell line, with measurements taken at 24 hours after chemical dosing in a 24-well plate.ATG_Oct_MLP_CIS is one of 52 assay component(s) measured or calculated from the ATG_CIS assay. […] This assay endpoint, ATG_Oct_MLP_CIS, was analyzed with bidirectional fitting relative to DMSO as the negative control and baseline of activity. […]
Active and inactive are the calls of the source. The calls were made as follows: active = hit-call score of the fitted dose curve at least 0.9, where 1 is the maximum; inactive = score below 0.9.
Outcomes: y (active), n (inactive)

>>> category("CC=Cc1ccc2c(c1)OCO2")
"n"
>>> category("Nc1cc(Cl)cc(Cl)c1")
"n"
>>> category("CCNCC")
"n"
>>> category("CC(C)CCCCCCCOC(=O)c1ccccc1C(=O)OCCCCCCCC(C)C")
"n"
>>> category("C=CC(=O)OCC(CC)CCCC (stereo not drawn)")
"n"
>>> category("COCC(=O)N(c1c(C)cccc1C)N1CCOC1=O")
"n"
>>> category("Nc1ccc(Cl)c(Cl)c1")
"n"
>>> category("CCCCOC(=O)CCC(=O)OCCCC")
"n"
>>> category("CC(C)c1ccc(O)cc1")
"n"
>>> category("CC(=O)C=Cc1ccccc1")
"y"
>>> category("c1ccc(Nc2ccc3ccccc3c2)cc1")
"n"
>>> category("CC[N+](=O)[O-]")
"n"
>>> category("O=CNC(N1CCN(C(NC=O)C(Cl)(Cl)Cl)CC1)C(Cl)(Cl)Cl (stereo not drawn)")
"n"
>>> category("COc1ncc(F)c2nc(S(=O)(=O)Nc3c(F)cccc3F)nn12")
"n"
>>> category("CCC1CCC(=O)O1 (stereo not drawn)")
"n"
>>> category("CCC(C)(C)O")
"n"
>>> category("C=C(Cl)CCl")
"n"
>>> category("CN(C)CCC#N")
"n"
>>> category("Cc1ncc(C[n+]2csc(CCO)c2C)c(N)n1")
"n"
>>> category("Cc1ccccc1CCl")
"n"
>>> category("Cc1ccc(OP(=O)(Oc2ccc(C)cc2)Oc2ccc(C)cc2)cc1 (tested in a mixture with another compound)")
"n"
>>> category("Oc1ccc(C2(c3ccc(O)cc3)c3ccccc3-c3ccccc32)cc1")
"y"
>>> category("O=P1(NCCCl)OCCCN1CCCl (stereo not drawn)")
"n"
>>> category("O=S(=O)(O)O")
"n"
>>> category("CCCCNP(N)(N)=S")
"n"
>>> category("Cc1ccc(N(SC(F)(Cl)Cl)S(=O)(=O)N(C)C)cc1")
"y"
>>> category("CCOC(=O)C1OC1(C)c1ccccc1 (stereo not drawn)")
"n"
>>> category("O=C(O)c1cc[c]([Hg][Cl])cc1")
"y"
>>> category("O=C(O)COc1ccccc1")
"n"
>>> category("Oc1ccc(Cl)cc1")
"n"
>>> category("CCOC(=O)COc1ccc(Cl)cc1Cl")
"n"
>>> category("CCCCCCCCCCCCCCCC[N+](C)(C)C")
"y"
>>> category("[Cl-].[Cl-].[Cl-].[Yb+3]")
"n"
>>> category("O=C(O)CCl")
"n"
>>> category("C=Cc1cccc(CCl)c1")
"y"
>>> category("COc1ccc(CO)cc1")
"n"
>>> category("CC(=O)/C=C/c1ccccc1")
"n"
>>> category("[N-]=[N+]=CC(=O)OC[C@H](N)C(=O)O")
"n"
>>> category("O=c1[nH]c(Cl)c(Cl)cc1Cl")
"n"
>>> category("[CH3][Sn]([Cl])([Cl])[Cl]")
"n"
>>> category("c1ccc(P(c2ccccc2)c2ccccc2)cc1")
"n"
>>> category("O=[N+]([O-])c1ccc(Cl)cc1")
"n"
>>> category("CC(C)C(=O)Cl")
"n"
>>> category("CC1OC(C)OC(C)O1 (stereo not drawn)")
"n"
>>> category("CSc1nc(N=[N+]=[N-])nc(NC(C)C)n1")
"n"
>>> category("CN(N=O)c1ccccc1")
"n"
>>> category("CCN(CC)C(=S)S")
"n"
>>> category("CCOP(O)OCC")
"n"
>>> category("ClCCCCCCCl")
"n"
>>> category("COC(=O)c1ccccc1S(=O)(=O)NC(=O)Nc1nc(C)cc(C)n1")
"n"
>>> category("O=S(=O)(O)OOS(=O)(=O)O")
"n"
>>> category("CCCCCc1cc(O)cc(O)c1")
"y"
>>> category("CCOP(=O)(OCC)OCC")
"n"
>>> category("Nc1ccc(-c2ccc(N)c(N)c2)cc1N")
"n"
>>> category("CC(Cc1ccc(C(C)(C)C)cc1)CN1C[C@@H](C)O[C@@H](C)C1 (stereo partly drawn)")
"n"
>>> category("C=CC(=O)OCCCCOC(=O)C=C")
"y"
>>> category("O=[N+]([O-])c1cc(C(F)(F)F)c(Cl)c([N+](=O)[O-])c1Cl")
"n"
>>> category("C[N+](C)=CCl")
"n"
>>> category("C[N+](=O)[O-]")
"n"
>>> category("CCOC(=O)NC(=S)Nc1ccccc1NC(=S)NC(=O)OCC")
"n"
>>> category("O=C1C=CC(=O)C=C1")
"n"
>>> category("O=[N+]([O-])O")
"n"
>>> category("Clc1ccc(-c2ccccc2)cc1")
"n"
